test-context: 313 K; 101.33 kPa; Liquid; transient hot wire
assay-readout: thermal conductivity (W/m/K)
Give a bare numeral; the unit W/m/K is implied.

- compound: "CCCCn1cc[n+](C)c1.O=S(=O)([O-])C(F)(F)F [1-butyl-3-methylimidazolium trifluoromethanesulfonate]"
  thermal conductivity / W/m/K: 0.145
- compound: "CCCC[N+]1(C)CCCC1.O=S(=O)([N-]S(=O)(=O)C(F)(F)F)C(F)(F)F"
  thermal conductivity / W/m/K: 0.124

[ask] Item under review: CCOS(=O)(=O)[O-].CCn1cc[n+](C)c1 [1-ethyl-3-methylimidazolium ethyl sulfate] . Reported thermal conductivity?
[reply] 0.181

---

test-context: 323 K; 101.33 kPa; Liquid; transient hot wire
# thermal conductivity annotations
Give a bare numeral; the unit W/m/K is implied.

The following molecules have reported results that may help.
- molecule: "CCn1cc[n+](C)c1.O=S(=O)([N-]S(=O)(=O)C(F)(F)F)C(F)(F)F"
  unit-descriptor: "W/m/K"
  thermal conductivity: 0.129
- molecule: "CCCCn1cc[n+](C)c1.O=S(=O)([O-])C(F)(F)F [1-butyl-3-methylimidazolium trifluoromethanesulfonate]"
  unit-descriptor: "W/m/K"
  thermal conductivity: 0.144

Could you now consider this next molecule?
[ask] Item under review: CCCC[n+]1ccn(C)c1.O=S(=O)([N-]S(=O)(=O)C(F)(F)F)C(F)(F)F . Reported thermal conductivity?
[reply] 0.126

---

# thermal conductivity annotations
test-context: 323 K; 101.33 kPa; Liquid; transient hot wire
Give a bare numeral; the unit W/m/K is implied.

The following compounds have reported results that may help.
- compound: "CCCCCCCCCCCCCC[P+](CCCCCC)(CCCCCC)CCCCCC.[Cl-] [trihexyl(tetradecyl)phosphonium chloride]"
  assay-readout: "thermal conductivity"
  experimental-result: 0.157
- compound: "CCCCCC[n+]1ccn(C)c1.O=S(=O)([N-]S(=O)(=O)C(F)(F)F)C(F)(F)F"
  assay-readout: "thermal conductivity"
  experimental-result: 0.126
- compound: "CCCCCCCCCCCCCC[P+](CCCCCC)(CCCCCC)CCCCCC.O=S(=O)([N-]S(=O)(=O)C(F)(F)F)C(F)(F)F"
  assay-readout: "thermal conductivity"
  experimental-result: 0.141

[ask] Item under review: CCCCCCCCCCn1cc[n+](C)c1.O=S(=O)([N-]S(=O)(=O)C(F)(F)F)C(F)(F)F . Reported thermal conductivity?
[reply] 0.129

[ask] Item under review: CCOS(=O)(=O)[O-].CCn1cc[n+](C)c1 [1-ethyl-3-methylimidazolium ethyl sulfate] . Reported thermal conductivity?
[reply] 0.179

[ask] Item under review: CCCCCCCCn1cc[n+](C)c1.O=S(=O)([N-]S(=O)(=O)C(F)(F)F)C(F)(F)F . Reported thermal conductivity?
[reply] 0.126

[ask] Item under review: CCCC[N+]1(C)CCCC1.FC(F)(F)C(F)(F)[P-](F)(F)(F)(C(F)(F)C(F)(F)F)C(F)(F)C(F)(F)F . Reported thermal conductivity?
[reply] 0.105

[ask] Item under review: CCCC[N+]1(C)CCCC1.O=S(=O)([N-]S(=O)(=O)C(F)(F)F)C(F)(F)F . Reported thermal conductivity?
[reply] 0.124

---

test-context: 303 K; 101.33 kPa; Liquid; transient hot wire
assay-readout: thermal conductivity (W/m/K)
Give a bare numeral; the unit W/m/K is implied.

The following molecules have reported results that may help.
- molecule: "CCOS(=O)(=O)[O-].CCn1cc[n+](C)c1 [1-ethyl-3-methylimidazolium ethyl sulfate]"
  unit-descriptor: "W/m/K"
  thermal conductivity: 0.181
- molecule: "CCCCCCCCCCCCCC[P+](CCCCCC)(CCCCCC)CCCCCC.O=S(=O)([N-]S(=O)(=O)C(F)(F)F)C(F)(F)F"
  unit-descriptor: "W/m/K"
  thermal conductivity: 0.143

Could you now consider this next molecule?
[ask] Item under review: CCCCCCCCCCn1cc[n+](C)c1.O=S(=O)([N-]S(=O)(=O)C(F)(F)F)C(F)(F)F . Reported thermal conductivity?
[reply] 0.131
